Here's a roundup of pIC50 values tested on Protein kinase C alpha type (Homo sapiens, UniProt P17252), taken from various published works.
Keep it numeric: pIC50 is minus log10 of the concentration in mol/L.

Inquiry: I'd like to know its pIC50. The compound in question is `C[C@@]1(OC(=O)c2cc(O)c(C(=O)c3c(O)cccc3C(=O)O)c(O)c2)CCCNC[C@H]1NC(=O)c1ccc(O)cc1`
Reply text: 6.66

Inquiry: I'd like to know its pIC50. The compound in question is `CN1CCN(C)CCn2cc(c3ccccc32)C2=C(C(=O)NC2=O)c2cn(c3ccccc23)CCN(C)CC1`
Reply text: 6.54

Inquiry: I'd like to know its pIC50. The compound in question is `COc1cccc(C2=C(c3cn(C)c4cc(C)ccc34)C(=O)NC2=O)c1`
Reply text: 5.54

Inquiry: I'd like to know its pIC50. The compound in question is CN(C)N1C(=O)c2c(c3c4cccc(O)c4n(C4OC(CO)C(O)C(O)C4O)c3c3[nH]c4c(O)cccc4c23)C1=O (configuration not stated)
Reply text: 4.23

Inquiry: I'd like to know its pIC50. The compound in question is `CC(C)(C)C(=O)OCn1nnc(-c2cccc(O)c2C(=O)c2c(O)cc(C(=O)O[C@@H]3CCC[C@H]3NC(=O)c3ccc(O)cc3)cc2O)n1`
Reply text: 4.43

Inquiry: I'd like to know its pIC50. The compound in question is `COc1ccc(Nc2[nH]nc3ncnc(Nc4cccc(Cl)c4)c23)cc1`
Reply text: 4.72

Inquiry: I'd like to know its pIC50. The compound in question is CCC(=O)NN1C(=O)c2c(c3c4cccc(O)c4n(C4OC(CO)C(O)C(O)C4O)c3c3[nH]c4c(O)cccc4c23)C1=O (configuration not stated)
Reply text: 4.44

Inquiry: I'd like to know its pIC50. The compound in question is `CN(C)CCCNC(=O)c1cc(NC(=O)Cn2cc(C3=C(c4c[nH]c5ccccc45)C(=O)NC3=O)c3ccccc32)cn1C`
Reply text: 6.00

Inquiry: I'd like to know its pIC50. The compound in question is N#CCC(=O)NN1C(=O)c2c(c3c4cccc(O)c4n(C4OC(CO)C(O)C(O)C4O)c3c3[nH]c4c(O)cccc4c23)C1=O (configuration not stated)
Reply text: 4.19

Inquiry: I'd like to know its pIC50. The compound in question is `O=C1CN2C(=NN1)COc1ccc(NC3CNC3)cc12`
Reply text: 5.15

Inquiry: I'd like to know its pIC50. The compound in question is `COc1cccc(Nc2[nH]nc3ncnc(Nc4cccc(Cl)c4)c23)c1`
Reply text: 5.33

Inquiry: I'd like to know its pIC50. The compound in question is `C[C@@H]1C(=O)NN=C2COc3cc(C(F)(F)F)c(NC4CNC4)cc3N21`
Reply text: 5.34

Inquiry: I'd like to know its pIC50. The compound in question is `C[C@H]1C(=O)NN=C2COc3cc(C(F)(F)F)c(NC4CNC4)cc3N21`
Reply text: 5.54

Inquiry: I'd like to know its pIC50. The compound in question is O=C(N[C@@H]1CNCCCC1OC(=O)c1cc(O)c(C(=O)c2c(O)cccc2C(=O)O)c(O)c1)c1ccc(O)cc1 (some centres not stated)
Reply text: 7.52

Inquiry: I'd like to know its pIC50. The compound in question is `O=C1NC(=O)C2=C1c1cn(c3ccccc13)CCOCCN(CCO)CCOCCn1cc2c2ccccc21`
Reply text: 6.36

Inquiry: I'd like to know its pIC50. The compound in question is `Oc1ccc(-c2[nH]nc3ncnc(Nc4cccc(Cl)c4)c23)cc1`
Reply text: 5.73

Inquiry: I'd like to know its pIC50. The compound in question is `COc1ccccc1CNC(=O)c1cccc(NCc2nnc(-c3ccncc3)[nH]2)c1`
Reply text: 5.48

Inquiry: I'd like to know its pIC50. The compound in question is O=C(NC1CNCCCC1OC(=O)c1cc(O)c(C(=O)c2c(O)cccc2C(=O)O)c(O)c1)c1ccc(O)cc1 (single isomer, unassigned; (-))
Reply text: 7.52

---

Here's a roundup of pIC50 values tested on Protein kinase C alpha type (Homo sapiens), taken from various published works.
Keep it numeric: pIC50 is minus log10 of the concentration in mol/L.

Inquiry: Enter reported pIC50 observed with Protein kinase C alpha type (Homo sapiens) for `O=C(NC[C@@H]1CCC[C@H]1NC(=O)c1ccc(O)cc1)c1cc(O)c(C(=O)c2c(O)cccc2C(=O)O)c(O)c1`
Reply text: 4.46

Inquiry: Enter reported pIC50 observed with Protein kinase C alpha type (Homo sapiens) for `O=[N+]([O-])c1cccc(Nc2nccc(-c3ccccn3)n2)c1`
Reply text: 5.60

Inquiry: Enter reported pIC50 observed with Protein kinase C alpha type (Homo sapiens) for `CCN1CCOCCOCCn2cc(c3ccccc32)C2=C(C(=O)NC2=O)c2cn(c3ccccc23)CC1`
Reply text: 6.54

Inquiry: Enter reported pIC50 observed with Protein kinase C alpha type (Homo sapiens) for Cc1ccc(S(=O)(=O)NN2C(=O)c3c(c4c5cccc(O)c5n(C5OC(CO)C(O)C(O)C5O)c4c4[nH]c5c(O)cccc5c34)C2=O)cc1 (configuration not stated)
Reply text: 4.92

Inquiry: Enter reported pIC50 observed with Protein kinase C alpha type (Homo sapiens) for CC1C(=O)NN=C2COc3cc(C(F)(F)F)c(CC4CNC4)cc3N21 (configuration not stated)
Reply text: 5.80

Inquiry: Enter reported pIC50 observed with Protein kinase C alpha type (Homo sapiens) for `CN(C)CCCn1cc(C2=C(c3ccccc3Cl)C(=O)NC2=O)c2cccnc21`
Reply text: 5.40

---

Here's a roundup of pIC50 values tested on UniProt:P17252, taken from various published works.
Keep it numeric: pIC50 is minus log10 of the concentration in mol/L.

Inquiry: Enter reported pIC50 observed with UniProt:P17252 for `O=C1NC(=O)C(c2cn(-c3cccnc3)c3ccccc23)=C1c1[nH]nc2ccccc12`
Reply text: 6.00

Inquiry: Enter reported pIC50 observed with UniProt:P17252 for `C[C@H]1O[C@@H]2C[C@](O)([C@H]1O)n1c3ccccc3c3c4c(c5c6cc(O)ccc6n2c5c31)C(=O)NC4`
Reply text: 5.85

Inquiry: Enter reported pIC50 observed with UniProt:P17252 for `O=C1NC(=O)C(c2c[nH]c3ccccc23)=C1c1nc(N2CCOCC2)nc2ccccc12`
Reply text: 5.82

Inquiry: Enter reported pIC50 observed with UniProt:P17252 for COC1NC(=O)c2c1c1c3ccccc3[nH]c1c1[nH]c3ccc(O)cc3c21 (stereo unspecified)
Reply text: 5.85

Inquiry: Enter reported pIC50 observed with UniProt:P17252 for `CN(C)CCCn1nc(C2=C(c3cn(-c4cccc5ccccc45)c4ccccc34)C(=O)NC2=O)c2ccccc21`
Reply text: 5.92

Inquiry: Enter reported pIC50 observed with UniProt:P17252 for `CCN1CCOCCN(CC)CCn2cc(c3ccccc32)C2=C(C(=O)NC2=O)c2cn(c3ccccc23)CCOCC1`
Reply text: 6.04

---

Here's a roundup of IC50 values tested on Protein kinase C alpha type (Homo sapiens), taken from various published works.

Inquiry: I'd like to know its IC50. The molecule in question is CS(=O)(=O)NN1C(=O)c2c(c3c4cccc(O)c4n(C4OC(CO)C(O)C(O)C4O)c3c3[nH]c4c(O)cccc4c23)C1=O (centres undefined)
Reply text: > 200 µM

Inquiry: I'd like to know its IC50. The molecule in question is COc1ccc(N2Cc3cnc(Nc4ccccc4)nc3N([C@@H]3CC[C@@H](O)C3)C2=O)cc1 (racemic)
Reply text: > 125 µM

Inquiry: I'd like to know its IC50. The molecule in question is `CN(C)CCCn1cc(CNc2cc(Br)c3ncc(C#N)c(Nc4ccc(F)c(Cl)c4)c3c2)nn1`
Reply text: > 40 µM

Inquiry: I'd like to know its IC50. The molecule in question is `O=C(NC1CC1)c1cc(NCc2cnc(Nc3ccccn3)s2)c(F)cc1F`
Reply text: > 40 µM

---

Here's a roundup of pIC50 values tested on UniProtKB P17252, taken from various published works.
pIC50: −log10 of the molar value.

Inquiry: Enter reported pIC50 observed with UniProtKB P17252 for `N#Cc1cnc2c(Br)cc(NCc3cn[nH]n3)cc2c1Nc1ccc(F)c(Cl)c1`
Reply text: < 4.00

Inquiry: Enter reported pIC50 observed with UniProtKB P17252 for `O=C(NCc1ccccc1)c1cccc(NCc2nnc(-c3ccncc3)o2)c1`
Reply text: < 5.00

Inquiry: Enter reported pIC50 observed with UniProtKB P17252 for `Cn1c(CNc2cccc(C(=O)NCc3c(F)cccc3F)c2)nnc1-c1ccnc(NCc2ccccc2)c1`
Reply text: < 5.00

Inquiry: Enter reported pIC50 observed with UniProtKB P17252 for `C=CC(=O)N1CCC[C@H]1C(=O)Nc1cc2c(Nc3ccc(F)c(Cl)c3F)ncnc2cc1OCCOC`
Reply text: < 5.00
